tested on: MDA-MB-231 breast; experiment: NCI tumour cell line growth inhibition, 48 h
So I've got a bunch of compounds here, and I need their TGI values.
Write the number in µM without appending the unit.

# compound `COc1cc(/C=C2\C[C@H]3[C@@H]4CCc5cc(O)ccc5[C@H]4CC[C@]3(C)C2=O)cc(OC)c1OC` ; its TGI = 43.9

# compound `COc1ccc(CN2C(=O)/C(=C\C(=O)c3ccc(OCCN4CCCCC4)cc3)c3ccccc32)cc1` ; its TGI = 4.56

# compound COc1cccc2c1OC(c1ccc(Cl)cc1)C([N+](=O)[O-])=C2 (stereo not given) ; its TGI = 13.8

# compound `Cc1c([N+](=O)[O-])ccc2c(NCCCN(C)C)ccnc12` ; its TGI = 56.6
